Target: Pol 957 EA (Thermococcus sp., UniProt Q56366)
Sequence (Q56366 1-775): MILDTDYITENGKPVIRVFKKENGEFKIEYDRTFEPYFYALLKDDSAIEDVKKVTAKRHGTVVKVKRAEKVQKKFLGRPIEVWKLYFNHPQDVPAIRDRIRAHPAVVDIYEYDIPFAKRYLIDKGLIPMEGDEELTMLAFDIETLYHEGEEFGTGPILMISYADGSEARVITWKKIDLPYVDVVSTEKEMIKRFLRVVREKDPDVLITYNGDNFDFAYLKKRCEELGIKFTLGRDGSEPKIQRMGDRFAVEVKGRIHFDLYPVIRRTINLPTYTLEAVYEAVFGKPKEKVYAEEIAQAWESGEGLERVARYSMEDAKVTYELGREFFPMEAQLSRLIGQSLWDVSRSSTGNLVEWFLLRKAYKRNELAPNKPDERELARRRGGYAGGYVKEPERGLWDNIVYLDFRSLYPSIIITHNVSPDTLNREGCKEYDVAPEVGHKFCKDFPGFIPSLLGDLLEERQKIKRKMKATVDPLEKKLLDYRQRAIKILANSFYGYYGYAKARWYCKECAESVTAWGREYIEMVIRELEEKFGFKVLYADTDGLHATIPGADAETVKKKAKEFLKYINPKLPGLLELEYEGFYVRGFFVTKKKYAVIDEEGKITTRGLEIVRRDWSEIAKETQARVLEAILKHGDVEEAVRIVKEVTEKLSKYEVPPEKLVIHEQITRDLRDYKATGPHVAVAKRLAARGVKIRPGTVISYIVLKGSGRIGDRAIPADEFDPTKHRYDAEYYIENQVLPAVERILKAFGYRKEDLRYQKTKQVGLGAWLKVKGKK
pKd: −log10 of the molar value.
Quantity measured: pKd

[
  {
    "Sample smiles": "Cc1cn([C@H]2C[C@H](OCN=[N+]=[N-])[C@@H](COP(=O)(O)OP(=O)(O)OP(=O)(O)O)O2)c(=O)[nH]c1=O",
    "Quantity measured": "pKd",
    "Value reported": 6.26
  }
]

The measured values listed here are drawn from patent EP2964612B1.
